Recorded EC50 for the following binders
experimentalTarget: T1, human AMHRII (anti-Mullerian hormone receptor type 2) (human, UniProt Q16671 18-573)
T1 construct: whole, on cells; also called AMHR2; human AMHR2
T1 sequence (looked up): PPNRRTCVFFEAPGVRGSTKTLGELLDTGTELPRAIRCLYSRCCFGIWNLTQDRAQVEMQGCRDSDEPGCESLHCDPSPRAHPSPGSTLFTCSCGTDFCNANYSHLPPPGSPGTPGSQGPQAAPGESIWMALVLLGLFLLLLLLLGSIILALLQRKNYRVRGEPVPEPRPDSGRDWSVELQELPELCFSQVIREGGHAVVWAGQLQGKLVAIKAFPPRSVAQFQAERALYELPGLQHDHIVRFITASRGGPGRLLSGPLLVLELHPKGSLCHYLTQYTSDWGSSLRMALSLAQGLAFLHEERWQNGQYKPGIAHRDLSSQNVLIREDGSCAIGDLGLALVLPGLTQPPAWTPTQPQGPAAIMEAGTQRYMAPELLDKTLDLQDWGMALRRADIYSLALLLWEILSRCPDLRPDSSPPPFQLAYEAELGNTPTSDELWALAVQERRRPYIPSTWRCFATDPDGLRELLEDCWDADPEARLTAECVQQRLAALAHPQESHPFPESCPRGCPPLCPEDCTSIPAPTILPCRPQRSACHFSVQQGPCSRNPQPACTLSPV
assayNotes: FACS on CHO-K1 cells over-expressing human AMHR2
propertyLabel: EC50 (nM)

binder: xi94C4C3 hIgG1 (antibody, V domains shown, Murine variable domains in human chimeric format, human IgG1; also called xi94C4C3 hlgG1; 94C4C3 (chimeric)) VH: DVQLQESGPGLVKPSQSLSLTCTVTGYSITSDYAWNWIRQFPGNKLEWMGYISYSGSISYNPSLKSRISITRDTSKNQFFLQLNSVTTEDTATYYCARSRYSWFDYWGQGTLVTVSA VL: DIVLTQSPTSLAVSLGQRATLSCSASESVDTYGNSFMHWYQQKPGQPPKLLIYRASSLESGIPVRFSGSGSRTDFTLTINPVEAADVATYYCQQSNEDPYTFGGGTKLEIK
measurement: 1.21

binder: 94C4C3 H3L2 hIgG1 (antibody, V domains shown, Humanized, human IgG1; also called 94C4C3 H3L2 hlgG1) VH: QVQLQESGPGLVKPSETLSLTCTVSGYSITSDYAWNWIRQFPGKGLEWMGYISYSGSISYNPSLKSRITISRDTSKNQFFLKLSSVTAADTAVYYCARSRYSWFDYWGQGTLVTVSS VL: EIVLTQSPGTLSLSPGERATLSCSASESVDTYGNSFMHWYQQKPGQPPRLLIYRASSLESGIPVRFSGSGSRTDFTLTISRLEPEDFAVYYCQQSNEDPYTFGGGTKVEIK
measurement: 1.23

binder: 94C4C3 H4L1 hIgG1 (antibody, V domains shown, Humanized, human IgG1; also called 94C4C3 H4L1 hlgG1) VH: QVQLQESGPGLVKPSETLSLTCTVTGYSITSDYAWNWIRQFPGKKLEWMGYISYSGSISYNPSLKSRITISRDTSKNQFFLQLSSVTAADTAVYYCARSRYSWFDYWGQGTLVTVSS VL: EIVLTQSPGTLSLSPGERATLSCSASESVDTYGNSFMHWYQQKPGQAPRLLIYRASSLESGIPDRFSGSGSGTDFTLTISRLEPEDFAVYYCQQSNEDPYTFGGGTKVEIK
measurement: 1.12
